Task for the reader: assign each of the following molecules its reported I.A (Intrinsic Activity) Alpha-2 C.
- assayed-system: human α2C adrenergic receptor (Homo sapiens, UniProt P18825)
- Construct: The entire coding region of α2C (1383 bp), including 2 bp of 5′ UT and 400 bp of 3′ UT; expressed in transfected cells
- Sequence (P18825 1-462): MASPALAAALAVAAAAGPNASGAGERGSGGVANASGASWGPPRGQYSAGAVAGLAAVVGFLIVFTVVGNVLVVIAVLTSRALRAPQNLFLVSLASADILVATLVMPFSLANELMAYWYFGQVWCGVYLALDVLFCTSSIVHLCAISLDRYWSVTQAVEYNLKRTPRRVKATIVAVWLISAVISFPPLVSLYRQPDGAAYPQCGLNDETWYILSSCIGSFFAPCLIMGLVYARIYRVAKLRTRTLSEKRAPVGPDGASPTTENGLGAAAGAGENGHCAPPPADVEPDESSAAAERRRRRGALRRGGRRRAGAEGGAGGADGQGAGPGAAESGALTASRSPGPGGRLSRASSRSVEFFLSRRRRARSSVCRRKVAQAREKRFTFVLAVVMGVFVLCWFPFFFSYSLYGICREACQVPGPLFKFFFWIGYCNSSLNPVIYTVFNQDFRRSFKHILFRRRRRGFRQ
- measurement-notes: Agonist activity: inhibition of forskolin-stimulated cAMP synthesis
- Type: cell-based
- assay-conditions: maximum activity relative to maximum activity induced by norepinephrine, human α2C
Returns: the value as a bare number; no unit string appended.

Entry under test: c1nc2ccc(NC3=NCCS3)cc2s1 [Example 15, 6-(2-Thiazolin-2-ylamino)benzothiazole] . Its I.A (Intrinsic Activity) Alpha-2 C was 0.88

Record c1nc2ccc(NC3=NCCN3)cc2s1 [Example 14, 6-(2-Imidazolin-2-ylamino)benzothiazole] , field I.A (Intrinsic Activity) Alpha-2 C: 1.00

Kindly note the recorded I.A (Intrinsic Activity) Alpha-2 C for CC(=O)c1cc(NC2=NCCN2)cc2cc[nH]c12 [Example 6] , which is 0.90

Recorded I.A (Intrinsic Activity) Alpha-2 C (molecule Cc1cc(NC2=NCCS2)cc2cc[nH]c12 [Example 8, 7-Methyl-5-(2-thiazolin-2-ylamino)indole] ): 1.00

// I.A (Intrinsic Activity) Alpha-2 C value for c1nc2cc(NC3=NCCN3)ccc2s1 [Example 13, 5-(2-Imidazolin-2-ylamino)benzothiazole] : 1.00

I.A (Intrinsic Activity) Alpha-2 C for N#Cc1cc(NC2=NCCN2)cc2cc[nH]c12 [Example 5, 7-Cyano-5-(2-imidazolin-2-ylamino)indole] is 1.00

The reported I.A (Intrinsic Activity) Alpha-2 C of the molecule Brc1cc(NC2=NCCN2)cc2cc[nH]c12 [Example 2, 7-Bromo-5-(2-imidazolin-2-ylamino)indole] was 1.00

Measured values drawn from patent US6723741B2 for this set.
